- STUDY_TARGET: human TGFßRII (antigen of the Octet experiments) (human, UniProt P37173 23-166)
- Sequence (P37173 23-166): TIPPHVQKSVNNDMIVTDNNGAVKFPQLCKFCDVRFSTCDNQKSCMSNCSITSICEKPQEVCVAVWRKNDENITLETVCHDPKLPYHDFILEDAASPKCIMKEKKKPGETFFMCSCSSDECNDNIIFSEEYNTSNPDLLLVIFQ
- RUN_DESCRIPTION: BLI (Octet)
pKd: −log10 of the molar value.
# maps each entry to its pKd

>  <BINDER>
H1.86 L1 XENP34542 (antibody, V domains shown) VH: QLQVQESGPGLVKPSETLSLTCTVSGGSISNSYFSWGWIRQPPGKGLEWIGSFYYGEKTYYNPSLKSRATISIDTSKSQFSLKLSSVTAADTAVYYCPRGPTTIRGVIDSWGQGTLVTVSS VL: EIVLTQSPATLSLSPGERATLSCRASQSVRSYLAWYQQKPGQAPRLLIYDASNRATGIPARFSGSGSGTDFTLTISSLEPEDFAVYYCQQRSNWPPTFGQGTKVEIK

>  <pKd>
10.18

$$$$
>  <BINDER>
H1.101 L1 XENP34557 (antibody, V domains shown) VH: QLQVQESGPGLVKPSETLSLTCTVSGGSISNSYFSWGWIRQPPGKGLEWIGSFYYGEKTYYNPSLKSRATISIDTSKSQFSLKLSSVTAADTAVYYCPRGPTMIRGVMDSWGQGTLVTVSS VL: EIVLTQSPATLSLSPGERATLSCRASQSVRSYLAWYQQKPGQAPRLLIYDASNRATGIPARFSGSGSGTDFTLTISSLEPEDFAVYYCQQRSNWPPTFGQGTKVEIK

>  <pKd>
9.31

$$$$
